- test_protocol: Selectivity index, ratio of cytotoxicity against golden hamster BSR cells to IC50 for antitrypanosomal activity against Trypanosoma cruzi amastigotes infected in BSR cells
- Assay type: toxicity, cell-based
- applied_conditions: read-out: Selectivity Index
measurement_type: selectivity ratio

compound="O=C(Cn1ccnc1[N+](=O)[O-])NCc1ccccc1 [BENZNIDAZOLE]" readout_value=504
compound=O=C(CCn1ccnc1)c1cccc([N+](=O)[O-])c1 readout_value=15
compound=O=C(CCn1ccnc1)c1ccc([N+](=O)[O-])cc1 readout_value=10
compound=O=C(CCn1ccnc1)c1ccc(F)c2ccccc12 readout_value=12
compound=COc1ccc(C(=O)CCn2ccnc2[N+](=O)[O-])cc1 readout_value=28
